Measured melting point accompanies every entry in the list below.

Recorded results for 5 compounds are shown here.
INSERT INTO measurements (smilesrecord, measuredresult) VALUES
  ('COc1ccc(-c2nc(CNC(=O)/C=C/c3cc(OC)ccc3OC)cc3c2[nH]c2ccccc23)cc1', '130 to 135 °C'),
  ('O=C(/C=C/c1cc(F)cc(F)c1)NCc1cc2c([nH]c3ccccc32)c(-c2cccc(F)c2)n1', '215 to 220 °C'),
  ('COc1ccc(OC)c(/C=C/C(=O)NCc2cc3c([nH]c4ccccc43)c(-c3cc(OC)c(OC)c(OC)c3)n2)c1', '148 to 150 °C'),
  ('COc1cc(-c2nc(CNC(=O)/C=C/c3cccc(O)c3)cc3c2[nH]c2ccccc23)cc(OC)c1OC', '175 to 178 °C'),
  ('O=C(/C=C/c1cccc(O)c1)NCc1cc2c([nH]c3ccccc32)c(-c2cccc(F)c2)n1', '142 to 148 °C');

Per the record, `COc1cc(/C=C/C(=O)NCc2cc3c([nH]c4ccccc43)c(-c3cc(OC)c(OC)c(OC)c3)n2)ccc1O` has melting point of 175 to 178 °C

Per the record, `O=C(/C=C/c1ccc(Cl)c(Cl)c1)NCc1cc2c([nH]c3ccccc32)c(-c2cccc(F)c2)n1` has melting point of 255 to 258 °C

Attribution: patent US10392385B2
